Tested on: SF-295
Experiment: NCI tumour cell line growth inhibition, 48 h
Activity calls are given as the source filed them. No stated cut-off is given here; in the data, active = GI50 up to about 1.1 µM and inactive = higher.
Recorded GI50 for the following molecules

Q. Query (molecule): "Cc1c(N2CCCC2)cc2c(c1NC(=O)c1ccccc1Cl)C(C)(C)CC2(C)C" ; field requested: GI50
A. 13.3 µM (inactive)

Q. Which GI50 reading was recorded for the molecule C=CCCCC(C#N)(c1ccccc1)N1CCCC1 (configuration not stated) ?
A. > 100 µM (inactive)

Q. For CCN(/N=C1\CC2C=CCN(C2)C(=O)Cc2c1[nH]c1ccccc21)S(=O)(=O)c1ccc(C)cc1 (configuration not stated) , what is its reported GI50?
A. 71.1 µM (inactive)

Q. Look up GI50: NNC(=O)N/N=C1\CNC(=O)C(=O)C1c1nc2ccccc2s1 (configuration not stated)
A. > 100 µM (inactive)

Q. Return reported GI50; argument: "C#C[C@]1(O)CCCC2=CC(=O)CC[C@@]21C"
A. > 100 µM (inactive)

Q. GET /values?readout=GI50&item= C=C1CC(CN2CCC(=O)NC2=O)(c2ccccc2)OC1=O (configuration not stated)
A. 20.7 µM (inactive)

Q. Bench note: what GI50 did "CN(C)CCNc1ccc([N+](=O)[O-])c2nc3ccccc3c(N)c12" show?
A. 0.711 µM (active)

* * *

System: CCRF-CEM
Assay: NCI tumour cell line growth inhibition, 48 h
Active and inactive are the calls of the source. Rule as the data show it: active = GI50 up to about 1.1 µM and inactive = higher.
Field 'call' accepts true (1) for active, false (0) for inactive

CCN(CC)CC(C)(C)C(=O)/C=C/c1ccc(/C=C/C(=O)C(C)(C)CN(CC)CC)cc1 ... true (1)
c1ccc(C2SCC3=Nc4ccccc4CN32)cc1 (centres undefined) ... false (0)
CSCC(COC(C)=O)(CSC)c1ccncc1 ... false (0)
CC1CCC2(NC1)OC1CC3[C@@H]4CC=C5C=CCC[C@]5(C)C4CC[C@]3(C)C1C2C (some centres undefined) ... false (0)
CS(=O)(=O)C(C#N)c1nc2ccccc2nc1Cl (centres undefined) ... false (0)

# evaluate next
Q. Write down the call the test reported for this molecule. Item: "N#Cc1cccc(Nc2ccccc2SSc2ccccc2Nc2cccc(C#N)c2)c1"
A. false (0)

* * *

Tested on: SN12C
Experiment: NCI tumour cell line growth inhibition, 48 h
The source made the active and inactive calls. Rule as the data show it: active = GI50 up to about 1.1 µM and inactive = higher.
Please answer using one outcome listed in y = active, n = inactive

Below, 8 compounds whose answers are already recorded.
O=C(O)CC(C(=O)O)c1ccccc1[N+](=O)[O-] (centres undefined) ... n
CCOC(=O)c1c(C)[nH]c2c1c(CN(C)C)c(O)c1nc(C)c(C)nc12 ... n
CCn1c2ccccc2c2cc(Nc3cc(C)[nH]c(=O)n3)ccc21 ... n
C=C1C(=O)OC2C(C)C3C=CC(=O)[C@@]3(C)C(OC(=O)/C(C)=C/C)C1[C@@H]2OC(C)=O (some centres undefined) ... y
CO/N=C(/C(=O)Nc1c[n+](CC(=O)[O-])cs1)c1csc(N)n1 ... n
COc1cc(-c2nn3c(=O)n(-c4ccc(Cl)cc4)c(=O)nc3s2)cc(OC)c1OC ... n
N#Cc1cc(Sc2ccc(N)c(C#N)c2)ccc1N ... n
COc1ccc(-c2nnc(-c3ccncc3)o2)cc1 ... n

Q. Status in this test for OC(CCN1CCN(CCOC(c2ccc(F)cc2)c2ccc(F)cc2)CC1)c1ccccc1 (centres undefined) ?
A. n

Q. Per the assay record, what outcome was assigned to "CC(C)(C)c1cc2c(c(C(C)(C)C)c1O)CC(=O)O2" ?
A. n

Q. # lookup: test call for "NNc1nnc(CCCCCCCCc2nnc(NN)n2N)n1N"
A. n

Q. Short answer needed: outcome of this test for "Cc1ccc(NC(=O)c2ccc(OP(=O)(O)Nc3ccc(C)cc3)cc2)cc1" ?
A. n

Q. So what was the verdict on CC1OC(OC2C(OC(=O)[C@]34CCC(C)(C)C[C@H]3C3=CC[C@@H]5[C@@]6(C)CC[C@H](OC7OC(C(=O)O)C(O)C(O)C7O)C(C)(C)[C@@H]6CC[C@@]5(C)[C@]3(C)C[C@H]4O)OCC(O)C2O)C(O)C(OC2OCC(O)(CO)C2O)C1OC1OCC(O)C(O)C1O (some centres undefined) in this test?
A. n

Q. // param item: "O=[N+]([O-])c1ccc(-c2ccc(C3=Nn4c(CNc5ccccc5Cl)nnc4SC3)o2)cc1" ; yields the recorded call
A. n

Q. # outcome recorded in this test, key = "N#CC(C#N)=C(N)/C(C#N)=C\c1ccnc2ccccc12"
A. n

Data provenance: ChEMBL document CHEMBL1201862
